# merged literature set: Ki with D(3) dopamine receptor (Homo sapiens)
RESULT TYPE: Ki (nM)

INSERT INTO results (chemical_smiles, measurement_target, quantitative_readout) VALUES
  ('COc1ccccc1N1CCN(CCCN2C(=O)c3ccccc3C2=O)CC1', 'D(3) dopamine receptor (Homo sapiens)', 560),
  ('CN(C)c1ccc(/C=C/C(=O)NCCCCN2CCc3ccc(OS(=O)(=O)C(F)(F)F)cc3C2)cc1', 'D(3) dopamine receptor (Homo sapiens)', 3.98),
  ('Cc1nc(N)sc1CCCN/C(N)=N/C(=S)N[C@H](C)c1ccccc1', 'D(3) dopamine receptor (Homo sapiens)', 60.3),
  ('COc1ccccc1N1CCN(Cc2cc(CO)c3cccccc2-3)CC1', 'D(3) dopamine receptor (Homo sapiens)', 580),
  ('CC(=O)Nc1ccc(CCN2C[C@H]3COc4ccc(C#N)cc4[C@@H]3C2)cc1', 'D(3) dopamine receptor (Homo sapiens)', 3.16);

[I] COc1ccc2c(c1)CCCN(C)CCc1ccccc1C2
[II] O=C(/C=C/c1cnc2ccccc2c1)NCCCCN1CCc2ccc(OS(=O)(=O)C(F)(F)F)cc2C1
Prompt: Which value of Ki is greater, the one for I or the one for II ? State the label of the item chosen.
Completion: I

----------
pKi: −log10 of the molar value.
# merged literature set: pKi with D(3) dopamine receptor (Homo sapiens)
RESULT TYPE: pKi

Example entries and their recorded answers appear below.
INSERT INTO measurements (compound, quantitative_readout) VALUES
  ('Oc1cc(CN2CCN(c3ccc4c(c3)OCCO4)CC2)ccc1F', 5.38),
  ('COc1ccccc1N1CCC2(CCN(CCCSc3nnc(-c4ccccc4)n3C)CC2)CC1', 7.92),
  ('COc1ccc2nc(NC(=O)CCCCN3CCN(c4ccc(Cl)cc4)CC3)sc2c1', 8.03);

[A] COc1ccc(Br)cc1C(=O)NCCN1CCN(c2ccccc2)CC1
[B] CCCN1CCO[C@@H]2c3cc(C(=O)Nc4ccc(OC)cc4)ccc3CC[C@H]21
[C] C=CCN1C[C@H](OC(=O)Nc2ccsc2)C[C@H]1CNC(=O)c1cc(CCCF)cc(OC)c1OC
Prompt: Thanks in advance: please rank these 3 entries by pKi, highest to lowest. Order the labels as requested and give them as your answer.
Completion: C, A, B
(C: 8.21, A: 6.50, B: 5.56)

[a] FC1(c2ccc(Cl)cc2)CCN(Cc2c[nH]c3ccccc23)CC1
[b] CCCN1CCc2cccc3c2C1Cc1cccc(OCCCn2cc(CCN4CCN(c5ccccc5OC)CC4)nn2)c1-3 (racemic)
[c] O=C(CCN1CCN(CCC(=O)OC2(c3ccc(Cl)cc3)CCN(CCCC(=O)c3ccc(F)cc3)CC2)CC1)OC1(c2ccc(Cl)cc2)CCN(CCCC(=O)c2ccc(F)cc2)CC1
Prompt: Order by pKi, ascending. Order the labels as requested and give them as your answer.
Completion: a, c, b

[P] O=C1CC(CN2CCC(c3noc4cc(F)ccc34)CC2)Cc2ncncc21 (centres undefined)
[Q] Cc1ccc(OCCCNCCOc2ccc(Cl)cc2)cc1
[R] O=C1c2ccccc2C(=O)N1CCCCCN1CCN(c2cccc(Cl)c2Cl)CC1
[S] O=C1c2ccccc2CN1CCCCN1CCN(c2ccc(Cl)cc2)CC1
Prompt: Thanks in advance: please rank these 4 entries by pKi, highest to lowest. Order the labels as requested and give them as your answer.
Completion: R, Q, P, S
(R: 8.11, Q: 6.75, P: 6.55, S: 6.18)

[a] COc1ccccc1N1CCN(CCCNC(=O)c2cccc(I)c2)CC1
[b] COc1ccc(/C=C/C(=O)NCCCCN2CCc3ccc(OS(=O)(=O)C(F)(F)F)cc3C2)cc1
[c] FC(F)(F)c1cccc(N2CCN(CCCCNc3ccc(-c4ccccc4)cn3)CC2)c1
[d] Clc1ccc(N2CCN(Cc3cn4nc(N5CCCCC5)ccc4n3)CC2)cc1Cl
Prompt: Order by pKi, ascending. Order the labels as requested and give them as your answer.
Completion: d, a, b, c
(d: 6.07, a: 6.52, b: 8.40, c: 8.96)

[A] CCS(=O)(=O)c1ccc(OC)c(-c2ccc(CN3CCCC3c3ccccc3)[nH]2)c1 (centres undefined)
[B] COc1ccccc1N1CCN(CCCOc2ccc3ccc(=O)[nH]c3c2)CC1
Prompt: Which value of pKi is greater, the one for A or the one for B ? State the label of the item chosen.
Completion: A
(A: 9.00, B: 8.24)

[I] c1ccc(CCC2CCN(Cc3c[nH]c4ncccc34)CC2)cc1
[II] COc1ccccc1N1CCN(CCCCNC2=CC=CC3=[N+]4[N+](=Cc5cc6ccccc6n5[B-]4(F)F)[B-](F)(F)N23)CC1
Prompt: Which value of pKi is greater, the one for I or the one for II ? State the label of the item chosen.
Completion: II

----------
# merged literature set: Ki with UniProtKB P35462

Example entries and their recorded answers appear below.
INSERT INTO results (compound, result_type, result) VALUES
  ('COc1ccc2c3c(c(=O)oc2c1)CN(Cc1ccc([N+](=O)[O-])cc1)CC3', 'Ki', '> 3 µM'),
  ('O=C1NC(CCN2CCN(c3ccc4ccccc4c3)CC2)c2ccccc21 (stereo not drawn)', 'Ki', '> 3 µM');

Continue with the compound presented below.
Prompt: # get_value(readout= Ki, system= UniProtKB P35462) for COc1ccccc1-c1ccc(C(=O)N2CCN(C(=O)c3ccc4cc[nH]c4c3)[C@@H](C)C2)cc1
Completion: > 10 µM

----------
# merged literature set: Ki with D(3) dopamine receptor (Homo sapiens)
RESULT TYPE: Ki (nM)

Example entries and their recorded answers appear below.
INSERT INTO results (molecule, result_type, quantitative_readout) VALUES
  ('c1c[nH]c2nc(CN3CCc4ccccc4C3)cc-2c1', 'Ki', 1100),
  ('CCCN(CCCCN1CCN(c2ccccc2)CC1)C1CCc2cc(O)c(O)cc2C1 (stereo not drawn)', 'Ki', 2.89),
  ('c1ccc(N2CCN(CC[C@H]3CC[C@@H](Nc4ncccn4)CC3)CC2)cc1', 'Ki', 29),
  ('COc1ccc(-c2cc(CCCCN3CCN(c4ccccc4F)CC3)on2)cc1OC', 'Ki', 20);

[I] COc1cc(CCNC[C@@H](O)c2ccc(O)c3c2OCC(=O)N3)ccc1OCCCc1ccccc1
[II] O=C(NCCCN1CCN(c2ncccn2)CC1)NN(Cc1ccc(F)cc1)c1ccccc1
Prompt: Which value of Ki is greater, the one for I or the one for II ? State the label of the item chosen.
Completion: II
(II: 1900 nM, I: 400 nM)

----------
pKi: −log10 of the molar value.
# merged literature set: pKi with D(3) dopamine receptor (Homo sapiens, UniProt P35462)
# Sequence (P35462 whole entry): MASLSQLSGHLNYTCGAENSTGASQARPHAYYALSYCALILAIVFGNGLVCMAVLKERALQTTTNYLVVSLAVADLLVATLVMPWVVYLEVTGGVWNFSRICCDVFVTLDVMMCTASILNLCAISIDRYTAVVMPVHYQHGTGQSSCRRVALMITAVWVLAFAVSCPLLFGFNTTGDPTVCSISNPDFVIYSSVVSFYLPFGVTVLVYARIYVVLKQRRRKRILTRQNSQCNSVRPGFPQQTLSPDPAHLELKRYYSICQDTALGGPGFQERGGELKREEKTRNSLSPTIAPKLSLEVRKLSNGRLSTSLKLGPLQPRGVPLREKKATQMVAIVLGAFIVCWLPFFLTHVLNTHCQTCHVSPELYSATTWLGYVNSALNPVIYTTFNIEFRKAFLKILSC

Example entries and their recorded answers appear below.
INSERT INTO measurements (molecule, measurement_target, result) VALUES
  ('COc1ccc(NC(=O)N2CCN(c3ccc(SC)cc3)CC2)cc1N1CCN(C)CC1', 'D(3) dopamine receptor (Homo sapiens, UniProt P35462)', '< 5.00'),
  ('COc1cccc2cc(C(=O)NCCCCN3CCN(c4nc5ccccc5[nH]4)CC3)oc12', 'D(3) dopamine receptor (Homo sapiens, UniProt P35462)', '< 5.07');

Prompt: Dear colleague, I am looking for the recorded pKi of the following molecule: Oc1ccc(OCCNCc2ccccc2)cc1
Completion: < 5.30

Prompt: Dear colleague, I am looking for the recorded pKi of the following molecule: CN[C@@H]1c2ccc3c(ccn3S(=O)(=O)c3ccccc3)c2[C@@H]1CCO
Completion: < 5.00

Prompt: Dear colleague, I am looking for the recorded pKi of the following molecule: Oc1ccc2c(c1)CCN1CCc3ccccc3C21 (stereo not given)
Completion: < 5.00

----------
# merged literature set: Ki with D(3) dopamine receptor (Homo sapiens, UniProt P35462)

Example entries and their recorded answers appear below.
INSERT INTO results (chemical_smiles, measurement_target, result) VALUES
  ('OCc1cccn2ncc(CN3CCN(c4ccc(Cl)cc4)CC3)c12', 'D(3) dopamine receptor (Homo sapiens, UniProt P35462)', '> 100 µM'),
  ('CCCN1CCO[C@@H]2c3cc(-c4nnn[nH]4)ccc3CC[C@H]21', 'D(3) dopamine receptor (Homo sapiens, UniProt P35462)', '> 10 µM'),
  ('Cc1ccc(C2CCN(Cc3ccc4c(c3)NC(=O)CO4)CC2)cc1', 'D(3) dopamine receptor (Homo sapiens, UniProt P35462)', '> 3.03 µM');

Continue with the molecule presented below.
Prompt: Dear colleague, I am looking for the recorded Ki of the following molecule: C[C@@H]1CN(CCCN(c2ccccc2)c2ccccc2)C[C@H](C)N1
Completion: > 8 µM

----------
# merged literature set: Ki with D(3) dopamine receptor (Homo sapiens, UniProt P35462)
RESULT TYPE: Ki (nM)

INSERT INTO measurements (chemical_smiles, quantitative_readout) VALUES
  ('O=C(CCCCCCCCCCCCCCC(=O)OC1(c2ccc(Cl)cc2)CCN(CCCC(=O)c2ccc(F)cc2)CC1)OC1(c2ccc(Cl)cc2)CCN(CCCC(=O)c2ccc(F)cc2)CC1', 220),
  ('C=CCN1C[C@H](OC(=O)NCc2ccccc2)C[C@H]1CNC(=O)c1cc(CCCF)cc(OC)c1OC', 6.2);

[P] COc1cc2c(cc1O)CN(Cc1ccccc1CNC(=O)c1ccccc1OC)CC2
[Q] COc1ccccc1N1CCCN(CCCCNC(=O)c2ccc(C)s2)CC1
[R] Cc1ccc2c(OCCN3CCC(Cc4ccc5c(c4)NC(=O)CO5)CC3)cccc2n1
Prompt: Thanks in advance: please rank these 3 entries by Ki, highest to lowest. Order the labels as requested and give them as your answer.
Completion: R, P, Q
(R: 631 nM, P: 120 nM, Q: 7.5 nM)
